These data points were gathered from ChEMBL document CHEMBL1201862.

# System: DU-145
# test_method_notes: NCI tumour cell line growth inhibition, 48 h
The source made the active and inactive calls. Rule as the data show it: active = GI50 up to about 1.1 µM and inactive = higher.
I'd be grateful if you could share measured GI50 for these entries.

Value of GI50 reported for the compound CCOC(=O)c1ccc(-c2cccs2)[nH]1 is 49 µM (inactive)

Entry CN(C)c1ccc(C(=N/N=C2\C(=O)Nc3ccccc32)c2ccc(N(C)C)cc2)cc1 , GI50 reported as 1.91 µM (inactive)

For record NC(=S)N/N=C/c1c[nH]c2ccccc12 the listed GI50 is > 100 µM (inactive)

The compound identified as COc1cc(/C=C/c2ccc(C)cc2)cc(OC)c1OC registered its GI50 at 3.01 µM (inactive)

The reported GI50 of the compound CC(C)CCNC(=O)c1ccc(CNC(=O)/C=C/c2ccc(OCc3ccccc3)cc2)cc1 was > 100 µM (inactive)

The value of GI50 measured for the compound Cc1c(CCCl)c(N=P(c2ccccc2)(c2ccccc2)c2ccccc2)n2c(nc3ccccc32)c1C#N turned out to be > 10 µM (inactive)

Record summary for Cc1ccc(/C=c2\cc3oc(=O)c4cccc(c4-3)c2=O)cc1 : reported GI50 = > 100 µM (inactive)

Please fill in: GI50 reported for Cc1ccc(S(=O)(=O)NCCSCCNS(=O)(=O)c2ccc(C)cc2)cc1 = > 100 µM (inactive)

Query Nc1nc(Cl)cc(NCC2(CO)COC2)n1 yields GI50 of > 100 µM (inactive)

GI50 reading for Cn1c(=O)c2c(nc(Cc3ccccc3)n2CC(=O)O)n(C)c1=O : > 100 µM (inactive)

Measured GI50, c1ccc(C(NCC2CCO2)(c2ccccc2)c2ccccc2)cc1 (configuration not stated) : 27.7 µM (inactive)

get_value(item= NC(=O)c1cc(-c2ccc(-n3ccnc3)cc2)nnc1O , readout=GI50) returns > 100 µM (inactive)

Value of measured GI50 for the entry CSc1nc(-c2ccccc2)nc(C(C#N)C#N)n1 : > 100 µM (inactive)

The recorded GI50 for entry COc1ccc(C(C)c2cc3c(cc2OC)OCO3)cc1 (configuration not stated) equals 0.231 µM (active)

CCC(C)OC(=O)/C(Br)=C1/OC(=O)c2ccccc2-c2ccccc21 (configuration not stated) has a reported GI50 of > 100 µM (inactive)

GI50 for NCC(=O)NC(CO)C(=O)O (configuration not stated) is > 100 µM (inactive)

Recorded GI50 (compound O=C1NC2CCCCC2NC1=C(C(=O)c1ccccc1)C(=O)c1ccccc1 (configuration not stated) ): > 100 µM (inactive)

Reported GI50 for CC(=O)OCc1cc(CCC(=O)NCCNc2c3ccccc3nc3ccccc23)cc(COC(C)=O)c1O[Si](C)(C)C(C)(C)C was 12.1 µM (inactive)

Documented GI50 of COc1cc(OC)c2c(c1)OC(c1ccccc1)CC2=O (configuration not stated) : > 10 µM (inactive)

Summary for this compound, Cc1cc2nnc(C(N)=O)c(N)c2cc1C : GI50 is > 100 µM (inactive)

compound CC(=O)NC1(C)CCC(C(C)(C)NC(C)=O)CC1 (configuration not stated) , GI50 observed: > 100 µM (inactive)

Reported GI50 ( C[C@@]1(c2ccccc2)O[C@@H]2C[C@H]3[C@@H]4CCC5=CC(=O)C=C[C@]5(C)[C@@]4(F)[C@@H](O)C[C@]3(C)[C@]2(C(=O)CO)O1 [AMCINAFIDE] ) = 20.1 µM (inactive)
